- Target: Glycogen synthase kinase-3 (Homo sapiens, UniProt P49840+P49841)
- Assay procedure: Inhibitory concentration against the Glycogen synthase kinase-3
- Format: protein assay
Readout: IC50 (µM)
Quick reminder: number only, in µM, skip the unit.

Example results:
{"Compound": "O=C1NC(=O)C(c2ccn3ncccc23)=C1c1cn2c3c(cccc13)CN(C(=O)N1CCOCC1)CC2", "IC50, µM": 0.0013}
{"Compound": "O=C1NC(=O)C(c2cnc3ccncn23)=C1c1cn2c3c(cccc13)CN(C(=O)N1CCOCC1)CC2", "IC50, µM": 0.071}
{"Compound": "O=C1NC(=O)C(c2cn3c4c(cccc24)CNCC3)=C1c1coc2ccccc12", "IC50, µM": 0.064}
{"Compound": "O=C1NC(=O)C(c2cncc3ccoc23)=C1c1cn2c3c(cccc13)CN(C(=O)N1CCOCC1)CC2 [BISARYLMALEIMIDE 2]", "IC50, µM": 0.0008}
{"Compound": "Cn1ccc2c(C3=C(c4cn5c6c(cccc46)CNCC5)C(=O)NC3=O)cccc21", "IC50, µM": 0.033}

Ask | Lab note: need IC50 for `O=C1NC(=O)C(c2cccc3cc[nH]c23)=C1c1cn2c3c(cccc13)CNCC2` on Glycogen synthase kinase-3 (Homo sapiens, UniProt P49840+P49841), anyone have it?
Reply | 0.15

Hello, the source for this data is ChEMBL document CHEMBL1141975, in case you need it.
